# Tested on: 786-0
# run_description: NCI tumour cell line growth inhibition, 48 h
Activity calls are given as the source filed them. Rule as the data show it: active = GI50 up to about 1.1 µM and inactive = higher.
Assign a class; possible classes are 1.0 (active), 0.0 (inactive)

Outcome? CC1CC(C)C2OC2(C)C[C@H](C)C(=O)NC(C)C(=O)N(C)[C@H](Cc2c(Br)[nH]c3ccccc23)C(=O)N[C@@H](c2ccc(O)cc2)CC(=O)O1 (some centres undefined)
0.0

Which outcome was entered for the compound `Cn1cnc(S[C@H]2[C@H]3C(=O)C=C4S[C@H]5C[C@]42C2=C(N5)C(=O)c4[nH]cc5c4C2=[N+]3CC5)c1C[C@H](N)C(=O)O` in this test?
0.0

Hi, do you know how `O=C(O)Cc1cc(=O)oc2cc(O)c(Cl)cc12` came out in this test?
0.0

Lab log entry: COC1C(C)OC(OC2CC(C)(O)Cc3cc4c(c(O)c32)C(=O)c2c(O)cc3c(c2C4=O)OC2OC3(C)C(O)C(N(C)C)C2O)C(OC)C1(C)OC (centres undefined) — outcome as called in the assay?
1.0

For `O=C(/C=C/c1c(O)ccc2ccccc12)c1ccc2ccccc2c1` , what call appears in the results of this test?
0.0

Which result was noted for this compound in the test: `Cc1ccc2ccccc2c1NC1=NCCO1`
0.0

Query: recorded result category for `O=C(/C=C/c1ccco1)c1cccc(C(=O)/C=C/c2ccco2)n1` in this test
0.0

How did this test come out for `C[C@H](OCc1ccccc1)C(=O)N1CCS(=O)(=O)N2CCC[C@H]2C1=O` ?
0.0

Hello, I am checking results. What call was entered for CCc1nc(N)nc(N)c1-c1ccc(Cl)cc1 [PYRIMETHAMINE] ?
0.0

###

# Test system: NCI-H226
# run_description: NCI tumour cell line growth inhibition, 48 h
Activity calls are given as the source filed them. Rule as the data show it: active = GI50 up to about 1.1 µM and inactive = higher.
experimental_readout: GI50

Value sought: GI50, system NCI-H226, item `O=C(O)c1ccc(Nc2cnc3cc(C(F)(F)F)ccc3n2)cc1` . Result: 71.3 µM (inactive)

Record OC1OC(c2ccc[nH]2)C(F)(F)C(F)(F)C1(F)F (stereo unspecified) / NCI-H226, GI50 recorded as > 100 µM (inactive)

Record `O=[N+]([O-])C(C(Cl)=C(Cl)Cl)=C(N1CCOCC1)N1CCOCC1` ; system NCI-H226; GI50 = > 100 µM (inactive)

// compound CC(=O)NC(CCCNC(=O)OCc1ccccc1)C(=O)O (stereo unspecified) , assay NCI-H226, GI50 value: > 100 µM (inactive)

Measured on NCI-H226, CC(=O)C1=C(C)N(c2ccc(C)cc2)C2(O)C=CC(O)=C3C(=O)c4ccccc4C(=O)C312 (stereo unspecified) has a documented GI50 of 22.8 µM (inactive)

Summary line: N#C/C(=C\c1ccc(C(O)P(=O)(O)O)cc1)C(N)=O (stereo unspecified) , NCI-H226, reported GI50 = > 100 µM (inactive)

###

# System: RPMI-8226
# run_description: NCI tumour cell line growth inhibition, 48 h
The source made the active and inactive calls. Rule as the data show it: active = GI50 up to about 1.1 µM and inactive = higher.
Mark one answer only. Choices: active, inactive

Write down the call the test reported for this compound. Item: `O=C1c2cccnc2S(=O)(=O)N1c1ccc([N+](=O)[O-])cc1`
inactive

In this assay, the call recorded for `O=C(CSc1nnc(-c2ccc(/N=C\c3ccc(Cl)cc3)cc2)o1)Nc1ccccc1` was what?
inactive

Per the records of this test, what outcome belongs to `COc1cc(CN2CCCCC2)cc2cc(C(=O)O)c(=O)oc12` ?
inactive

Hi team, can someone confirm the assay call for `Cc1cc2nc3c(C#N)c(C)c(CCCl)c(Cl)n3c2cc1C` ?
inactive

Could you please tell me the result logged for C[C@H]1COC2(c3ccccc3)CCC(=O)N12 (stereo partly specified) in this assay?
inactive

I'd appreciate the recorded outcome for COC12OC3CC4(C)C(=CC3OC(OC(C)C1O)C2O)CCC1C4CCC2(C)C(c3ccc(=O)oc3)CCC12O (stereo unspecified) from this test.
active

In this assay, the call recorded for COC(=O)CCC(=O)CC1CC(=O)C2CCCN12 (stereo unspecified) was what?
inactive

For `COC(=O)/C=C/c1cc(OC)c2oc(-c3ccc(OC)c(OC)c3)c(C(=O)OC)c2c1` , what call appears in the results of this test?
inactive

Dear all, I need the recorded test outcome for `O=c1nc(N2CCCC2)nc(N2CCCC2)s1` , thank you.
inactive

Record request — test call for `CNS(=O)(=O)NNS(=O)(=O)c1ccc2ccccc2c1`
inactive

Which outcome was assigned to COc1ccc(/C=C2\CCCC(C(NO)c3ccc(OC)cc3)C2=NO)cc1 (stereo unspecified) in this test?
inactive

Test call for this compound, please: `Cc1c2ccncc2c(C)c2c1[nH]c1ccc(OC(C)C)cc12`
inactive

// return assay outcome for CC(=O)Oc1ccc(C2SCc3nc4ccccc4n32)cc1 (stereo unspecified)
inactive

Can you look up the reported call for `CC(=O)n1nc(-c2[nH]c(C)c(-c3nn(C(C)=O)c(=S)o3)c2C)oc1=S` for me?
inactive

Kindly provide the recorded test outcome for the following compound: `ClCc1nc2cc(Cl)ccc2o1`
inactive

What outcome does the record of this test show for `Fc1ccc2c3c([nH]c2c1)CCN(Cc1ccccc1)C3` ?
inactive

Look up the recorded call for `COc1ccc(OC)c2c1C(=O)C(Cl)=C(N1CCN(CCOCCO)CC1)C2=O` in this test.
inactive

Short answer needed: outcome of this test for CC1(C)OC([C@H](O)CO)C([C@H]2NCCS2)O1 (stereo partly specified) ?
inactive

Recorded test call requested for `Nc1c(C(=O)NC23CC4CC(CC(C4)C2)C3)[n+]([O-])c2ccccc2[n+]1[O-]`
inactive

Tell me the assay call for `O=C(O)CS(=O)(=O)C(c1ccccc1)c1ccccc1` please.
inactive

How was CC1(C)OCC(C(O)C2OC(C)(C)OC2C=O)O1 (stereo unspecified) classified in this test?
inactive

Each compound tested received a call. Report the one for CC(=O)C(/N=N\C1CCC(S(=O)(=O)NB2N=CS2)CC1)C(=O)Nc1ccccc1C (stereo unspecified) .
inactive

What did the test return for CC1(O)CCC2(C#N)CCC1C2O (stereo unspecified) ?
inactive

Hi, do you know how Cc1ccc2c(c1)C(C(=O)N[C@@H]1C(=O)N3[C@@H]1SC(C)(C)[C@@H]3C(=O)O)OCCC2 (stereo partly specified) came out in this test?
inactive

Which outcome was entered for the compound `Cc1ccc(Oc2ccc([N+](=O)[O-])cc2[N+](=O)[O-])c(C)c1` in this test?
inactive

Status in this test for `O=C1NC(c2ccccc2)(c2ccccc2)C(=O)N1CCCCCCN1C(=O)NC(c2ccccc2)(c2ccccc2)C1=O` ?
inactive

Hi team, can someone confirm the assay call for `O=[N+]([O-])C(=C(Cl)Cl)C(Cl)=C(Cl)Cl` ?
active

For CCOC(=O)CCC1(C(=O)OCC)CCCC1=O (stereo unspecified) , what call appears in the results of this test?
inactive

Test call for this compound, please: `CCN1CCCn2c(=O)[nH]c3cc(Br)cc1c32`
inactive

Per the assay record, what outcome was assigned to `N#Cc1ccc(/C=C2\Cc3ccccc3C2=O)cc1` ?
inactive

Per the records of this test, what outcome belongs to `COc1ccc(/C=C\c2cc(OC)c(OC)c(OC)c2)cc1OCC(=O)O` ?
inactive

Please indicate how the test categorized `C=CCOC(=O)N1c2ccc(O[Si](C)(C)C(C)(C)C)cc2[C@@]23O[C@@]24[C@@H]1C#C/C=C\C#C[C@]3(O)C(OC)(OC)C[C@@H]4C` .
inactive

Just curious, what result did `O=C1C(NCCN2CCOCC2)=C(Cl)C(=O)c2ncccc21` get here?
active

For COc1cc(C2[C@H]3C(=O)N(c4ccc(Cc5ccc(N6C(=O)[C@@H]7ON(c8ccccc8)C(c8cc(OC)c(OC)c(OC)c8)[C@@H]7C6=O)cc5)cc4)C(=O)[C@H]3ON2c2ccccc2)cc(OC)c1OC (stereo partly specified) , which call appears in the assay record?
inactive

Any idea what this test logged for `S=P(N1CC1)(N1CC1)N1CC1` ?
inactive

What call does the record list for O=c1cc(O)ccn1C1C=C(CO)C(O)C1O (stereo unspecified) ?
inactive

Check the results log: what was the call for O=C(O)C(C(C(=O)O)P(=O)(O)O)P(=O)(O)O (stereo unspecified) ?
inactive

What did the test return for `C=C(CC)C(=O)c1ccc(OCC(=O)O)c(Cl)c1Cl` ?
inactive

Status in this test for `Cc1ccc(C(=O)Nc2ccc(S(=O)(=O)O)c3cc(S(=O)(=O)O)cc(S(=O)(=O)O)c23)cc1NC(=O)c1cccc(NC(=O)Nc2cccc(C(=O)Nc3cc(C(=O)Nc4ccc(S(=O)(=O)O)c5cc(S(=O)(=O)O)cc(S(=O)(=O)O)c45)ccc3C)c2)c1` ?
inactive

Answer briefly: the call reported for `c1ccc(-c2nnc3nn4c(-c5ccccc5)cnnc4c3c2-c2ccccc2)cc1` in this assay.
inactive

Just curious, what result did `O=C(O)Cc1cc(=O)oc2cc(O)c(Cl)cc12` get here?
inactive

Data credit: ChEMBL document CHEMBL1201862
